Target: T1, IL-2 receptor βγ complex (human, UniProt P14784 27-551; P31785 23-369)
T1 sequence (looked up) 1: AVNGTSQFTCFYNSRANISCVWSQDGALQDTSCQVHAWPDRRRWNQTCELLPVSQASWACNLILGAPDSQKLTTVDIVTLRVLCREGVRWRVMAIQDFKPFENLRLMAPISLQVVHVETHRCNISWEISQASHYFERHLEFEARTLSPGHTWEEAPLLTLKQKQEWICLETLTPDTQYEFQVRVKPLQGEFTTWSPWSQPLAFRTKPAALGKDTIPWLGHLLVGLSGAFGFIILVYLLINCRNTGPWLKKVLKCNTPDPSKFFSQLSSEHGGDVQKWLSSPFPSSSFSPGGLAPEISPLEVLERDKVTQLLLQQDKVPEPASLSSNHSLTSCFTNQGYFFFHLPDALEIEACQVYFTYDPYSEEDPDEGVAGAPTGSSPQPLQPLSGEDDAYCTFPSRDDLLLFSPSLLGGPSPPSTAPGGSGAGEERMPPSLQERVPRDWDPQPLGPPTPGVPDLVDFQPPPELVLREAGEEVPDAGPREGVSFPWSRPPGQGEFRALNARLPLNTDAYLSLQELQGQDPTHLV
T1 sequence (looked up) 2: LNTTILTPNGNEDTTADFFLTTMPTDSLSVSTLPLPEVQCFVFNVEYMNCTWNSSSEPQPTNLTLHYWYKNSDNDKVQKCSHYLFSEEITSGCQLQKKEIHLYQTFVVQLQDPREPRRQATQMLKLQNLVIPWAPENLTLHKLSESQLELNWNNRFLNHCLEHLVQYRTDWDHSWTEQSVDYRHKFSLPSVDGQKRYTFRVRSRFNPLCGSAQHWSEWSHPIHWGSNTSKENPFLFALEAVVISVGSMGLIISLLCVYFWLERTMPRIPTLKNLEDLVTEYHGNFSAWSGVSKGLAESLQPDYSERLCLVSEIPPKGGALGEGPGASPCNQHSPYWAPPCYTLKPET
Assay: cell-based or functional assay
Bridges are numbered along the chain shown (N, C = ends). Primed or numbered codes have the meaning given here. [ ]: non-standard residue; d: D form. 8x polyethylene glycol‑amino = O-(8x polyethylene glycol-amino)-tyrosine, SITE 45; 9x polyethylene glycol‑azido = O-(9x polyethylene glycol-azido)-tyrosine, SITE 42; cleavable peptide‑PEG9‑glutaryl = not defined here; Ygp″ = O-(8x polyethylene glycol-amino)-tyrosine; Yn3″ = O-(9x polyethylene glycol-azido)-tyrosine; hSer = N[C@@H](CCO)C(=O)O; Nle = CCCC[C@H](N)C(=O)O
ATTRIBUTE_MEASURED: Average EC50, pSTAT5 Assay in NK cells (nM)

{"BINDER": "CMP-151 (ligand, linker N-23 via cleavable peptide‑PEG9‑glutaryl; reading uncertain) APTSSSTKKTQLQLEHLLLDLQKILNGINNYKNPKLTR[Nle]L[hSer][Yn3″]KF[Ygp″][Nle]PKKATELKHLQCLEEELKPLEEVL[hSer]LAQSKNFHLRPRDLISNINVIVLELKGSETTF[hSer]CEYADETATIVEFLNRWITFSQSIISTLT", "ATTRIBUTE_MEASURED": "Average EC50, pSTAT5 Assay in NK cells", "ENDPOINT_VALUE": 2.51}
{"BINDER": "CMP-317, MMP2 cleaved molecule (ligand, also: A1 attached to another sequence via 4x polyethylene glycol, E23 side chain attached to another sequence, m119 after MMP2 cleavage, product not given here as a sequence) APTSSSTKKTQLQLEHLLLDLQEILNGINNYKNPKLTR[Nle]L[hSer]Y(9x polyethylene glycol‑azido)KFY(8x polyethylene glycol‑amino)[Nle]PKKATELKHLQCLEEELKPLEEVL[hSer]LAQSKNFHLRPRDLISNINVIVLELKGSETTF[hSer]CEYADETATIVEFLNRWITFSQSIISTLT", "ATTRIBUTE_MEASURED": "Average EC50, pSTAT5 Assay in NK cells", "ENDPOINT_VALUE": 12.2}
